molecular target: BRD4(1)^L94C (Homo sapiens, UniProt O60885, L94C); construct: Characterization of His6-BRD4(1)L94C; made in house; host or cells: E. coli BL21 (DE3); assay: Protein LCMS labeling assay 1; type: binding; conditions: 50 μM compound, 10 µM protein, 37 °C, 4 h; mean of three ± s.e.m.; ND = not detectable
Please provide measured Labeled Protein (%) L94C 4 h for the entries that follow.
Write the answer as a number in %, unit excluded.

Qu. Form field: reported Labeled Protein (%) L94C 4 h of C=CC(=O)c1cc(C)on1 [Compound 5]
Ans. 100.0

Qu. Form field: reported Labeled Protein (%) L94C 4 h of C#CC(=O)c1cc(C)on1 [Compound 9]
Ans. 58

Qu. Form field: reported Labeled Protein (%) L94C 4 h of C#CC(=O)c1cc(C)no1 [Compound 8]
Ans. 42

---

Please provide measured Labeled Protein (%) L94C 4 h for the entries that follow.
target: BRD4(1)^L94C (Homo sapiens, UniProt O60885, L94C); construct: Characterization of His6-BRD4(1)L94C; made in house; host or cells: E. coli BL21 (DE3); assay: Protein LCMS labeling assay 1; type: binding; conditions: 50 μM compound, 10 µM protein, 37 °C, 4 h; mean of three ± s.e.m.; ND = not detectable
Write the answer as a number in %, unit excluded.

Qu. Form field: reported Labeled Protein (%) L94C 4 h of `C#CC(=O)Nc1cc(C)no1`
Ans. 15

Qu. Form field: reported Labeled Protein (%) L94C 4 h of `Cc1cc(NC(=O)CCl)on1`
Ans. 32

Qu. Form field: reported Labeled Protein (%) L94C 4 h of `C=CC(=O)c1cc(C)no1`
Ans. 100

Qu. Form field: reported Labeled Protein (%) L94C 4 h of `CC#CC(=O)Nc1cc(C)no1`
Ans. 7.8

Qu. Form field: reported Labeled Protein (%) L94C 4 h of `Cc1noc(NC(=O)CCl)c1-c1ccccc1`
Ans. 22

Qu. Form field: reported Labeled Protein (%) L94C 4 h of `C=CC(=O)c1onc(C)c1-c1ccccc1`
Ans. 100

---

target: BRD4(1)^WT (Homo sapiens, UniProt O60885); construct: Characterization of His6-BRD4(1)WT; made in house; host or cells: E. coli BL21 (DE3); test: AlphaScreen H4_1–20(KAc)4 peptide displacement; assay type: binding; details: equals the 4 h value of Figure S14
Measurement label: IC50 (nM)
Write the answer as a number in nM, unit excluded.

Qu. Form field: reported IC50 of Cc1noc(C)c1-c1cc(O)cc(C(O)c2cccnc2)c1 (stereo not shown) [OXFBD04 (3), reference compound]
Ans. 183

---

target: BRD4(1)^L94C (Homo sapiens, UniProt O60885, L94C); construct: Characterization of His6-BRD4(1)L94C; made in house; host or cells: E. coli BL21 (DE3); experiment: AlphaScreen H4_1–20(KAc)4 peptide displacement; assay type: binding; conditions: read-out: IC50 (μM) L94C 1 h; 1 h incubation at RT; mean of three ± s.e.m.
Measurement label: IC50 (µM)
Write the answer as a number in µM, unit excluded.

Qu. Form field: reported IC50 of Cc1noc(C)c1-c1cc(O)cc(C(O)c2cccnc2)c1 (stereo not shown) [OXFBD04 (3), reference compound]
Ans. 0.059

---

Please provide measured Labeled Protein (%) WT 4 h for the entries that follow.
molecular target: BRD4(1)^WT (Homo sapiens, UniProt O60885); construct: Characterization of His6-BRD4(1)WT; made in house; host or cells: E. coli BL21 (DE3); test: Protein LCMS labeling assay 1; format: binding; conditions: 50 μM compound, 10 µM protein, 37 °C, 4 h; mean of three ± s.e.m.; ND = not detectable
Write the answer as a number in %, unit excluded.

Qu. Form field: reported Labeled Protein (%) WT 4 h of `C=CC(=O)c1cc(C)no1`
Ans. 83

Qu. Form field: reported Labeled Protein (%) WT 4 h of `C=CC(=O)c1cc(C)on1`
Ans. 86

Qu. Form field: reported Labeled Protein (%) WT 4 h of `C#CC(=O)c1cc(C)no1`
Ans. 29

Qu. Form field: reported Labeled Protein (%) WT 4 h of `C#CC(=O)c1cc(C)on1`
Ans. 22

The origin of these recorded values is paper PMC10660337.
